System: HCV 1b-BB7 subgenomic replicon
Experiment: microbe, parasite or virus in culture
Assay type: cell-based, HCV genotype 1b
Conditions: Hepatitis C virus, stable replicon, strain 1b BB7, 5% FBS, no human plasma; read-out: 1b BB7 5% FBS EC50
property name: EC50
Don't forget the unit after the number, please.

| compound | EC50 |
| --- | --- |
| CC(C)CCN(c1cc2oc(-c3ccc(F)cc3)c(C3=NOCN3)c2cc1C1CC1)S(C)(=O)=O | 70.9 nM |
| CC1NC(c2c(-c3ccc(F)cc3)oc3cc(N(CCO)S(C)(=O)=O)c(C4CC4)cc23)=NO1 (stereo not shown) | 23.5 nM |
| CS(=O)(=O)N(CCc1ccccc1)c1cc2oc(-c3ccc(F)cc3)c(-c3ncc[nH]3)c2cc1C1CC1 | 51 nM |

Now look at this entry.
Given the compound CCC1NC(c2c(-c3ccc(F)cc3)oc3cc(N(CCC(C)C)S(C)(=O)=O)c(C4CC4)cc23)=NO1 (stereo not shown) and test system HCV 1b-BB7 subgenomic replicon, the measured EC50 is 6250 nM
